From: ChEMBL document CHEMBL1157539

Tested on: Plasmodium falciparum
Assay: GSK_TCMDC: Inhibition of Plasmodium falciparum 3D7 in whole red blood cells, using parasite LDH activity as an index of growth. Test compounds present at 2uM
Assay type: functional
value_type: Inhibition (%)

>>> print(df.to_string())
                                    compound  result_number
 0           CCCCc1ccc2ncc(C(=O)OCC)c(O)c2c1             95
 1  CC1CCCCN1CCCNc1ncc2c(-c3ccc(NC(=O)Nc4cc(C(F)(F)F)ccc4F)c(F)c3)nn(C)c2n1.O=C(O)C(F)(F)F (stereo not drawn)            100
 2  COc1ccc(NC(=O)/C=C/c2ccccc2Cl)cc1OCCN1CCC(O)(c2ccc(Cl)c(C(F)(F)F)c2)CC1.Cl            100
 3  COc1cc(C2NCC3(CCOCC3)c3cc4c(cc32)OCCO4)cc(OC)c1OC.Cl (stereo not drawn)             95
 4  CN(C)CCCN1CCN(Cc2ccc(-c3ccc(-c4nc5ccccc5[nH]4)s3)cc2)CC1            100
 5  Cc1cnc(NCCc2ccc(F)cc2)nc1NCCC(=O)Nc1ccccc1.O=C(O)C(F)(F)F             89
 6  O=C(CCc1c[nH]cn1)Nc1cccc(-c2cccc(-c3nc4cc(C(F)(F)F)ccc4[nH]3)c2)c1            100
 7  CN(C)CCNCc1nc(-c2ccc3c(Nc4ccc(Oc5ccccc5)cc4)ccnc3c2)cs1            100
 8  Cc1nc2nc(N)nc(N)c2c(C)c1Cc1ccc(C(F)(F)F)cc1.Cl             96
 9  Cc1cc(N2Cc3ccccc3C2)nc(Nc2ccc(S(=O)(=O)N3CCOCC3)cc2)n1.Cl            100
10  COc1ccc2nccc([C@@H](O)CN3CCC(NCCOc4ccccc4[N+](=O)[O-])CC3)c2c1.O=C(O)C(=O)O            100
11  COc1ccc(NC(=O)Nc2ccc(-c3ccc(-c4nc5cccc(C)c5[nH]4)s3)cc2)cc1            100
12  COc1cccc(-c2cc(C(F)(F)F)n3ncc(C(=O)Nc4cc(C)ccc4O)c3n2)c1             98
13  O=C(Nc1cc(C(F)(F)F)cc(C(F)(F)F)c1)Nc1ccc(Cl)c(Cl)c1            100
14  C[C@H](Cc1ccc(Oc2ccc(C[C@@H](C)NC[C@H](O)c3cccc(Cl)c3)cc2)cc1)NC[C@H](O)c1cccc(Cl)c1.Cl            100
15  CCN1CCN(CC(O)CNC(=O)Nc2ccc(Cl)cc2)CC1.O=C(O)C(F)(F)F (stereo not drawn)            100
16  Cc1nc(-c2cccc(C(F)(F)F)c2)n2nc(Nc3ccc(OCCN4CCCC4)cc3)ncc12             99
17  Cc1cc(N2CCN(C)CC2)nc2ccc(NC(=O)Cc3cccc(C(F)(F)F)c3)cc12             99

* * *

Here the recorded Inhibition is given for each entry.
Test system: HepG2
Assay: GSK_TCMDC: Percent inhibition of human HepG2 cell line. Test compounds present at 10uM.
Format: functional
value_type: Inhibition (%)

>>> df
                                   compound  assayed_system  value_type  endpoint_unit  result_number
0  COC(=O)c1ccc(CCC(C)NCC(O)c2cccc(C(F)(F)F)c2)cc1.Cl (centres undefined)           HepG2  Inhibition              %             16
1  COc1ccc(Nc2cc(C)nc(Nc3ccc(NC(C)=O)cc3)n2)cc1           HepG2  Inhibition              %             16
2  COc1ccc(NC(=O)c2ccc(OCCCCCCCOc3ccc(C(=O)Nc4ccc(OC)c(N5CCN(C)CC5)c4)cc3)cc2)cc1N1CCN(C)CC1.O=C(O)C(=O)O           HepG2  Inhibition              %             98
3  COc1ccc(CNc2nccc3ccc(-c4ccc(N)nc4)cc23)cc1.O=C(O)C(F)(F)F           HepG2  Inhibition              %              7
4  O=C(Nc1cccnc1)c1cc(-c2cccnc2)nc2ccc(Cl)cc12           HepG2  Inhibition              %             45
5  CCc1cn2c3c(cc(C(=O)N[C@@H](Cc4ccccc4)[C@H](O)CNCCOC)cc13)N(C)S(=O)(=O)CC2.O=CO           HepG2  Inhibition              %              7
6  Cc1ccc(F)cc1S(=O)(=O)Nc1ccc(CCN2CCC(N3CCCCC3)CC2)cc1           HepG2  Inhibition              %             25
7       CCc1ccc(N2C(N)=NC(N)=NC2(C)C)cc1.Cl           HepG2  Inhibition              %             51
8  CN1CCCC(CN2CCN(Cc3cccc(-c4cccc(-c5nc6ccccc6[nH]5)c4)c3)CC2)C1.O=C(O)C(F)(F)F (centres undefined)           HepG2  Inhibition              %             45
